Data provenance: patent US20240132498A1

# TARGET_ENTITY: CYP2C19 (Homo sapiens)
# Construct: from tissue; host or cells: pooled human liver microsomes
# Sequence (P33261 whole entry): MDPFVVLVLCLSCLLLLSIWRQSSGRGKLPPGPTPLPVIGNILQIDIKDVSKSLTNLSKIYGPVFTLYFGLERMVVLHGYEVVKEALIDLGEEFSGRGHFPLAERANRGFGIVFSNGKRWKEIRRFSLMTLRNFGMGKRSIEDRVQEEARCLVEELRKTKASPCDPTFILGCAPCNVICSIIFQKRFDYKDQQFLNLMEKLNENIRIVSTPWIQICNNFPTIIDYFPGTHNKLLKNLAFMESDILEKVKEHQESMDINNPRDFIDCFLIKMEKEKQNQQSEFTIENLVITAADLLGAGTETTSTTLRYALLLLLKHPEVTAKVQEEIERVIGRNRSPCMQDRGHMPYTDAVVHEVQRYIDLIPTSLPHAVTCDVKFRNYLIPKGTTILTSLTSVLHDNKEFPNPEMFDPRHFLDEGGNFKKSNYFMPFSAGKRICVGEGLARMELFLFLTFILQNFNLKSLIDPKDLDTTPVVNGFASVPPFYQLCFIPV
# ASSAY_INFO: Time-dependent inhibition of CYP450 enzymes in human liver microsomes: CYP2C19
# Assay type: in vitro ADME
# CONDITION_SUMMARY: human, pooled human liver microsomes; CYP2C19, 50 μM, time zero; read-out: % Activity NADPH T0
EXPERIMENTAL_READOUT: activity at 0 min, 50 µM (%)
Answers are plain numbers, in %.

Look up and report measured activity at 0 min, 50 µM (CYP2C19 (Homo sapiens)) for the following compound: C[C@H]1CC[C@H](N2CC(=O)N(Cc3ccc(F)c(F)c3)C3(CN(C=O)C3)C2=O)CC1
84

* * *

# TARGET_ENTITY: CYP2B6 (Homo sapiens)
# Construct: from tissue; host or cells: pooled human liver microsomes
# Sequence (P20813 whole entry): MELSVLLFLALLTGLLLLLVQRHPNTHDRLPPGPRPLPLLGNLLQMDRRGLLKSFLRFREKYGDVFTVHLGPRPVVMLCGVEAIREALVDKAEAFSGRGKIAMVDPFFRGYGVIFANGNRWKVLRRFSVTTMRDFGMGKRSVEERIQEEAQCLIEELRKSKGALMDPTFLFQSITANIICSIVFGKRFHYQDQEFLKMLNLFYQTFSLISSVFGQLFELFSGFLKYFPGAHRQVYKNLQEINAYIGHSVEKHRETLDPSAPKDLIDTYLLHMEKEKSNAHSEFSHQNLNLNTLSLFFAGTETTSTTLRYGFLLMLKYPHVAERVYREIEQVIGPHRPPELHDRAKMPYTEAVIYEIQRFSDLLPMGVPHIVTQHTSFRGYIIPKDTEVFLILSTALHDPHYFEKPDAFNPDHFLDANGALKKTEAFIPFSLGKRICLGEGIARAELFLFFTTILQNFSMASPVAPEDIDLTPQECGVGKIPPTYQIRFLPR
# ASSAY_INFO: Time-dependent inhibition of CYP450 enzymes in human liver microsomes: CYP2B6
# Format: in vitro ADME
# CONDITION_SUMMARY: human, pooled human liver microsomes; CYP2B6, 25 μM, 30 minutes incubation; read-out: % Activity NADPH T30
EXPERIMENTAL_READOUT: activity at 30 min, 25 µM (%)
One number for each entry, in %.

Answer with the recorded activity at 30 min, 25 µM for the compound listed here: C[C@H]1CC[C@H](N2CC(=O)N(Cc3ccc(F)c(F)c3)C3(CN(C=O)C3)C2=O)CC1
84

* * *

# ASSAY_INFO: Kinetic solubility of crystalline Form II in solvents
# Format: physicochemical
# CONDITION_SUMMARY: MeOH, 25 °C, organic solvent or mixture, thermodynamic from solid, MeOH, read-out: Average Solubility
EXPERIMENTAL_READOUT: solubility at 4 h

Please indicate solubility at 4 h recorded for C[C@H]1CC[C@H](N2CC(=O)N(Cc3ccc(F)c(F)c3)C3(CN(C=O)C3)C2=O)CC1 [Form II]
> 100 mg/mL

* * *

# ASSAY_INFO: Kinetic solubility of crystalline Form II in solvents
# Type: physicochemical
# CONDITION_SUMMARY: Acetone, 25 °C, organic solvent or mixture, thermodynamic from solid, Acetone, single replicate, read-out: Solubility
EXPERIMENTAL_READOUT: solubility at 4 h

Give recorded solubility at 4 h. C[C@H]1CC[C@H](N2CC(=O)N(Cc3ccc(F)c(F)c3)C3(CN(C=O)C3)C2=O)CC1 [Form II]
> 101 mg/mL

* * *

# TARGET_ENTITY: CYP2D6 (Homo sapiens)
# Construct: from tissue; host or cells: pooled human liver microsomes
# Sequence (P10635 whole entry): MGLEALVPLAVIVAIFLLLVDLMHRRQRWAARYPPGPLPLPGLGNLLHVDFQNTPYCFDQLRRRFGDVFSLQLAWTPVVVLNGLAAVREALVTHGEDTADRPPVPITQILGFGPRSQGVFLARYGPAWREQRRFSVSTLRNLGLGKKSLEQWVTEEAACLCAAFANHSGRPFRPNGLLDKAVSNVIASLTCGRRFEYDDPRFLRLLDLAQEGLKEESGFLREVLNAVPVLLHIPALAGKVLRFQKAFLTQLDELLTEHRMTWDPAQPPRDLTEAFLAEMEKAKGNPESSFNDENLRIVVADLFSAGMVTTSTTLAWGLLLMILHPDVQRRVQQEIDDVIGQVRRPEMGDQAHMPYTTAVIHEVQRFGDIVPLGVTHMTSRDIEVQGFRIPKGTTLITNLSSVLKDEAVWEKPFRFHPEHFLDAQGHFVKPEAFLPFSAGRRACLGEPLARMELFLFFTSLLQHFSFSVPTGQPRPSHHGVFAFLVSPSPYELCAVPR
# ASSAY_INFO: Time-dependent inhibition of CYP450 enzymes in human liver microsomes: CYP2D6
# Assay type: in vitro ADME
# CONDITION_SUMMARY: human, pooled human liver microsomes; CYP2D6, 50 μM, 30 minutes incubation; read-out: % Activity NADPH T30
# Description: An assessment of the time-dependent Inhibitory Potential of the test compounds against Principal Human Cytochrome P450 Isozymes using Human Liver Microsomes was also carried out using standard methods (Grimm et al, Drug Metab. Dispos., Jul; 37(7):1355-70. doi: 10.1124/dmd.109.026716, 2009). […] LC-MS/MS was used to quantify metabolite formation. […]
EXPERIMENTAL_READOUT: activity at 30 min, 50 µM (%)
Give bare numbers, in %.

Write down activity at 30 min, 50 µM measured for item C[C@H]1CC[C@H](N2CC(=O)N(Cc3ccc(F)c(F)c3)C3(CN(C=O)C3)C2=O)CC1
88

* * *

# ASSAY_INFO: Kinetic solubility of crystalline Form II in solvents
# Format: physicochemical
# CONDITION_SUMMARY: Isopropyl acetate, 25 °C, organic solvent or mixture, thermodynamic from solid, Isopropyl acetate, single replicate, read-out: Solubility
EXPERIMENTAL_READOUT: solubility at 4 h (mg/mL)
One number for each entry, in mg/mL.

Identify the reported solubility at 4 h for the following entry. C[C@H]1CC[C@H](N2CC(=O)N(Cc3ccc(F)c(F)c3)C3(CN(C=O)C3)C2=O)CC1 [Form II]
22

* * *

# ASSAY_INFO: Long-term storage stability of the solid (1, 3, 6 months)
# Type: physicochemical
# CONDITION_SUMMARY: Initial
EXPERIMENTAL_READOUT: Total Impurities
// unit must come after the numeric part

Find the measured Total Impurities of C[C@H]1CC[C@H](N2CC(=O)N(Cc3ccc(F)c(F)c3)C3(CN(C=O)C3)C2=O)CC1 [Form II] and report it.
0.91%

* * *

Exercise: for every item that follows, state its recorded Vd.
# ASSAY_INFO: Mouse single dose pharmacokinetics
# Format: in vivo
# CONDITION_SUMMARY: plasma, iv, 0.5 mg/kg, male C57BL/6 mice, read-out: Vss

Some molecules with known Vd results, for comparison:
- MOLECULE: "C[C@H]1CC[C@H](N2CC(=O)N(Cc3ccc(F)c(F)c3)C3(CN(C=O)C3)C2=O)CC1"
  VAL: "4.2 L/kg"
- MOLECULE: "O=CN1CC2(C1)C(=O)N([C@H]1CC[C@H](C(F)F)CC1)CC(=O)N2Cc1ccc(C(F)(F)F)cc1"
  VAL: "3.28 L/kg"

# next molecule below
Give the reported Vd for this molecule. O=C1[C@H](C2COC2)N(Cc2ccc(C(F)(F)F)cc2)C(=O)CN1c1ncc(Cl)cc1F [Comparator C, reference compound]
1.39 L/kg

* * *

# ASSAY_INFO: Kinetic solubility of crystalline Form II in solvents
# Format: physicochemical
# CONDITION_SUMMARY: MeCN, 25 °C, organic solvent or mixture, thermodynamic from solid, MeCN, read-out: Average Solubility
EXPERIMENTAL_READOUT: solubility at 4 h

Report solubility at 4 h for C[C@H]1CC[C@H](N2CC(=O)N(Cc3ccc(F)c(F)c3)C3(CN(C=O)C3)C2=O)CC1 [Form II]
> 100 mg/mL

* * *

# ASSAY_INFO: Kinetic solubility of crystalline Form II in solvents
# Type: physicochemical
# CONDITION_SUMMARY: DI Water, 25 °C, pH 8.7, water, thermodynamic from solid, DI Water, final pH 8.7, single replicate, read-out: Solubility
EXPERIMENTAL_READOUT: solubility at 4 h (µg/mL)
Answers are plain numbers, in µg/mL.

Fill in solubility at 4 h for record C[C@H]1CC[C@H](N2CC(=O)N(Cc3ccc(F)c(F)c3)C3(CN(C=O)C3)C2=O)CC1 [Form II]
500

* * *

# ASSAY_INFO: Kinetic solubility of crystalline Form II in solvents
# Format: physicochemical
# CONDITION_SUMMARY: 2-Me-THF, 25 °C, organic solvent or mixture, thermodynamic from solid, 2-Me-THF, read-out: Average Solubility
# Experimental: The solubility of crystalline Form II was analyzed with 15 types of common solvents. Sufficient amount of Form II was suspended in 0.5 mL solvent for a maximum anticipated concentration of Ca. =10-100 mg/ml of the free Form II. The resulting suspensions were then shaken in a platform shaker at 25° C./ 750 rpm for 4 hours. After equilibration, the appearance was recorded, and the pH of the saturated solution was measured for aqueous samples only. […] All diluted samples were then analyzed by HPLC. […]
EXPERIMENTAL_READOUT: solubility at 4 h
Include the unit after the number when you answer.

Provide solubility at 4 h value for the following molecule: C[C@H]1CC[C@H](N2CC(=O)N(Cc3ccc(F)c(F)c3)C3(CN(C=O)C3)C2=O)CC1 [Form II]
24 mg/mL

* * *

# ASSAY_INFO: Projected single-dose CL and Vss values in humans (allometric scaling)
# CONDITION_SUMMARY: human, allometric scaling of mouse, rat, dog, cynomolgus monkey IV PK
For each of the molecules below, state its Projected t1/2.
Give bare numbers, in h.

A selection of reference data follows.
- MOLECULE: "C[C@H]1CC[C@H](N2CC(=O)N(Cc3ccc(F)c(F)c3)C3(CN(C=O)C3)C2=O)CC1"
  Projected t1/2 (h): 28.3
- MOLECULE: "O=C1[C@H](C2COC2)N(Cc2ccc(C(F)(F)F)cc2)C(=O)CN1c1ncc(Cl)cc1F [Comparator C, reference compound]"
  Projected t1/2 (h): 41

# map each molecule to its Projected t1/2
1. CC(=O)N1CC2(C1)C(=O)N(c1ccc(C#N)cc1F)CC(=O)N2Cc1ccc(C(F)(F)F)cc1
2. O=CN1CC2(C1)C(=O)N(c1ccc(F)cc1F)CC(=O)N2Cc1ccc(Cl)cc1
3. O=CN1CC2(C1)C(=O)N([C@H]1CC[C@H](C(F)F)CC1)CC(=O)N2Cc1ccc(C(F)(F)F)cc1

62
38.7
51.7

* * *

# ASSAY_INFO: Kinetic solubility of crystalline Form II in solvents
# Assay type: physicochemical
# CONDITION_SUMMARY: DMSO, 25 °C, organic solvent or mixture, thermodynamic from solid, DMSO, read-out: Average Solubility
EXPERIMENTAL_READOUT: solubility at 4 h

Return the recorded solubility at 4 h value; entry: C[C@H]1CC[C@H](N2CC(=O)N(Cc3ccc(F)c(F)c3)C3(CN(C=O)C3)C2=O)CC1 [Form II]
> 100 mg/mL
